Values from ChEMBL document CHEMBL2146470

experiment: Plasma concentration in nude NCr mouse xenografted with human MDA-MB-231T cells at 5 mg/kg, po measured after 24 hrs by LC-MS analysis; format: ADME, organism-based; parameters: dose 5 mg/kg, route oral
assayReadout: concentration at 24 h

In: Output concentration at 24 h of "O=C(c1ccc(F)c(F)c1Nc1ccc(I)cc1F)N1CC(O)([C@@H]2CCCCN2)C1"
Out: < 4 nM

* * *

experiment: Oral bioavailability in Sprague-Dawley rat at 5 mg/kg; assay type: ADME, organism-based; conditions: in vivo
What bioavailability was measured for each of the following?
Number only, in %; omit the unit.

In: Output bioavailability of "CC(C)NCC1(O)CN(C(=O)c2ccc(F)c(F)c2Nc2ccc(I)cc2F)C1"
Out: 86

In: Output bioavailability of "O=C(c1ccc(F)c(F)c1Nc1ccc(I)cc1F)N1CC(O)([C@@H]2CCCCN2)C1"
Out: 77

In: Output bioavailability of "C[C@H](N)C1(O)CN(C(=O)c2ccc(F)c(F)c2Nc2ccc(I)cc2F)C1"
Out: 58

In: Output bioavailability of "CCNCC1(O)CN(C(=O)c2ccc(F)c(F)c2Nc2ccc(I)cc2F)C1"
Out: 101

In: Output bioavailability of "NCC1(O)CN(C(=O)c2ccc(F)c(F)c2Nc2ccc(I)cc2F)C1"
Out: 78

In: Output bioavailability of "O=C(c1ccc(F)c(F)c1Nc1ccc(I)cc1F)N1CC(O)C1"
Out: 19
